- PROTOCOL SUMMARY: Microsomal stability, human liver microsomes
- Type: in vitro ADME
- MEASUREMENT CONDITIONS: percentage of compound remaining after 60 minutes, 3 μM compound
QUANTITY NAME: Microsomal Stability Human (%)

>  <CHEM SMILES>
O=C(Nc1nc2cccc(-c3ccc(CNc4c(F)cccc4F)cc3)n2n1)C1CC1

>  <Microsomal Stability Human (%)>
* (* 0-25)

$$$$
>  <CHEM SMILES>
O=C(Nc1nc2cccc(-c3ccc(CN4CCC(C(F)(F)F)CC4)cc3)n2n1)C1CC1

>  <Microsomal Stability Human (%)>
** (** 26-50)

$$$$
>  <CHEM SMILES>
O=C(NCCc1ccccc1)c1ccc(-c2cccc3nc(NC(=O)C4CC4)nn23)cc1

>  <Microsomal Stability Human (%)>
* (* 0-25)

$$$$
>  <CHEM SMILES>
O=C(Nc1nc2cccc(-c3ccc(OCc4ncon4)cc3)n2n1)C1CC1

>  <Microsomal Stability Human (%)>
** (** 26-50)

$$$$
>  <CHEM SMILES>
O=C(Nc1nc2cccc(-c3ccc(NCc4cccnc4)cc3)n2n1)C1CC1

>  <Microsomal Stability Human (%)>
* (* 0-25)

$$$$

So what's the measured Microsomal Stability Human (%) for this one? `O=C(Nc1nc2cccc(-c3ccc(NS(=O)(=O)CCOc4ccccc4)cc3)n2n1)C1CC1` * (* 0-25)
